Below, each entry is listed alongside its reported % Inhibition.
Test system: P. falciparum stage V gametocytes
Design: BacTiter-Glo ATP luminescence viability of purified stage V gametocytes in 384-well plates, per cent inhibition versus DMSO
Conditions: 48 h, 5 µM, inhibitor, % Inhibition
About 3,200 (25%) of roughly 13,000 compounds showed an effect of 50% or more. This is one part of the list.
State just the number; it will be interpreted in %.

// known answers, use as guide
compound="COC(=O)c1sccc1NC(=S)NC1CCC(CN2CCC(c3c[nH]c4ccccc34)CC2)CC1 (centres unmarked)" tested_system="P. falciparum stage V gametocytes" readout="% Inhibition" test_result=68.17
compound="O=C(NC1CCC(CN2CCC(c3c[nH]c4ccccc34)CC2)CC1)c1cc2ccccc2s1 (centres unmarked) [TCMDC-139710]" tested_system="P. falciparum stage V gametocytes" readout="% Inhibition" test_result=-31.58
compound="O=C(CCc1ccc(Cl)cc1Cl)NC1CCC(CN2CCC(c3c[nH]c4ccccc34)CC2)CC1 (centres unmarked)" tested_system="P. falciparum stage V gametocytes" readout="% Inhibition" test_result=-48.76
compound="CSc1nccc(-c2ccc(S(=O)(=O)NC3CCC(CN4CCC(c5c[nH]c6ccccc56)CC4)CC3)s2)n1 (centres unmarked)" tested_system="P. falciparum stage V gametocytes" readout="% Inhibition" test_result=106.4
compound="CCOc1ccc2nccc([C@@H](O)[C@@H]3C[C@@H]4CCN3C[C@@H]4CC)c2c1 [TCMDC-123483]" tested_system="P. falciparum stage V gametocytes" readout="% Inhibition" test_result=-64.91

[Q] Which % Inhibition is reported for this compound? CCOc1ccc2nccc([C@@H](O)[C@@H]3C[C@@H]4CCN3C[C@@H]4CC)c2c1 [TCMDC-125547]
[A] -52.19

[Q] Which % Inhibition is reported for this compound? NC1=NC(c2ccccc2)(c2cccc(O)c2)C(=O)N1CCCc1ccccc1 (centres unmarked) [TCMDC-132352]
[A] -21.91

[Q] Which % Inhibition is reported for this compound? N#Cc1c(Cl)cccc1Oc1ccc(S(=O)(=O)NC2CCC(CN3CCC(c4c[nH]c5ccccc45)CC3)CC2)cc1 (centres unmarked) [TCMDC-140175]
[A] 1.176

---

System: P. falciparum stage V gametocytes
Design: BacTiter-Glo ATP luminescence viability of purified stage V gametocytes in 384-well plates, per cent inhibition versus DMSO
Conditions: 48 h, 5 µM; inhibitor
About 3,200 (25%) of roughly 13,000 compounds showed an effect of 50% or more. This is one part of the list.
Below, each entry is listed alongside its reported % Inhibition.
State just the number; it will be interpreted in %.

// known answers, use as guide
compound="COc1ccc(-c2nc3c4cc(I)ccc4c4ccccc4c3[nH]2)cc1 [TCMDC-124198]" readout="% Inhibition" test_result=-15.52
compound="O=C(NC1CCN(Cc2ccc3c(c2)OCCO3)CC1)c1ccc(-c2cccc(C(F)(F)F)c2)s1 [TCMDC-134337]" readout="% Inhibition" test_result=32.78
compound="CS(=O)(=O)c1ccccc1CNC(=O)c1cccc(-c2ccc(-c3nc4cc(C(F)(F)F)ccc4[nH]3)cc2)c1 [TCMDC-132506]" readout="% Inhibition" test_result=-36.65
compound="CCn1ncc(Cl)c1CN(C)S(=O)(=O)c1ccc2ccccc2c1 [TCMDC-124904]" readout="% Inhibition" test_result=17.76
compound="COc1ccc(-c2nonc2NC(=O)c2cccc(Cl)c2)cc1OC [TCMDC-125401]" readout="% Inhibition" test_result=22.75

[Q] Which % Inhibition is reported for this compound? COc1cc2nc(NCCc3cccc(Cl)c3)nc(NCc3ccccc3)c2cc1OC [TCMDC-135266]
[A] 90.56

[Q] Which % Inhibition is reported for this compound? CC(Cc1ccc(OCCN2CCN(c3ccccc3)CC2)cc1)NCC(O)c1cccc(Cl)c1F (stereo not drawn) [TCMDC-131531]
[A] 24.37

[Q] Which % Inhibition is reported for this compound? COc1cc(/C=C/C(=O)NCC(CCNc2cc(=O)c3ccccc3[nH]2)NCc2cc(Br)cc(Br)c2)cc(OC)c1 (stereo not drawn) [TCMDC-140217]
[A] -26.95

[Q] Which % Inhibition is reported for this compound? CC(Cc1ccc(OCCCCOc2ccccc2)cc1)NCCCN1CCOCC1 (stereo not drawn) [TCMDC-140018]
[A] 107.6

[Q] Which % Inhibition is reported for this compound? Cc1[nH]nc2cc(F)c(-c3cc(OC[C@@H](N)Cc4ccccc4)cnc3-c3ccoc3)cc12 [TCMDC-136295]
[A] 10.29

[Q] Which % Inhibition is reported for this compound? O=C(C1CCCCC1)N1CCOC(CCN2CCC(c3ccccc3)CC2)(c2ccc(Cl)c(Cl)c2)C1 (stereo not drawn) [TCMDC-135329]
[A] -33.1

[Q] Which % Inhibition is reported for this compound? CC(C)c1ccc(NC(=O)N2CCc3ccc(OCCN(C(C)C)C(C)C)cc32)c(Br)c1 [TCMDC-140252]
[A] 63.96

[Q] Which % Inhibition is reported for this compound? Cc1nc(-c2cccc(Nc3nccc(NCC(O)c4ccccc4C)n3)c2)cs1 (stereo not drawn) [TCMDC-136567]
[A] -8.142

[Q] Which % Inhibition is reported for this compound? CC(C)N(CCOc1ccc2c(c1)N(C(=O)Nc1cc(Br)cc(C(F)(F)F)c1)CC2)C(C)C [TCMDC-140250]
[A] -0.9347

[Q] Which % Inhibition is reported for this compound? O=c1cc(NC[C@H]2CCC[C@@H]2NCc2cc(Br)cc(Br)c2)[nH]c2ccccc12 [TCMDC-139655]
[A] -0.8474

[Q] Which % Inhibition is reported for this compound? Cc1sc(C)c(CNCCCNc2cc(=O)c3ccccc3[nH]2)c1Br [TCMDC-140765]
[A] -54.98

[Q] Which % Inhibition is reported for this compound? O=C(O)c1ccc2nc(-c3ccccn3)c(-c3ccccn3)nc2c1 [TCMDC-123820]
[A] -4.631

[Q] Which % Inhibition is reported for this compound? N=C(N)NN=CC(=O)Nc1ccc(Br)cc1 [TCMDC-137562]
[A] -7.978

[Q] Which % Inhibition is reported for this compound? O=c1cc(NCCCNCc2cc(Br)cs2)[nH]c2ccccc12 [TCMDC-139310]
[A] -17.04

---

Below, each entry is listed alongside its reported % Inhibition.
Test system: P. falciparum stage V gametocytes
Design: BacTiter-Glo ATP luminescence viability of purified stage V gametocytes in 384-well plates, per cent inhibition versus DMSO
Settings: 48 h, 5 µM; inhibitor
Out of some 13,000 compounds screened, about 3,200 (25%) showed an effect of 50% or more. Some of the results follow.
State just the number; it will be interpreted in %.

// known answers, use as guide
molecule="Cc1ccc2nc(-c3cc(-c4cccc(CCN5CCOCC5)c4)cnc3N)[nH]c2c1 [TCMDC-133136]" quantity_unit=% test_result=-33.78
molecule="Nc1nc(N)c2c(ccc3c2ccn3Cc2ccc(OCc3ccccc3)cc2)n1 [TCMDC-137336]" quantity_unit=% test_result=29.32
molecule="CCCC(C)NC(=O)/C=C/c1ccccc1-c1cccc(OC)c1 (stereo not drawn) [TCMDC-136229]" quantity_unit=% test_result=-11.68
molecule="Nc1nc(N)c2c(ccc3c2ncn3Cc2ccccc2)n1 [TCMDC-137749]" quantity_unit=% test_result=33.84

[Q] Which % Inhibition is reported for this molecule? O=c1[nH]c2c(cc1CNC1CCCCC1)c(-c1ccc(F)cc1)nn2-c1ccccc1 [TCMDC-125352]
[A] 14.87

[Q] Which % Inhibition is reported for this molecule? CC(C)c1sc(N2CCN(C)CC2)nc1C(=O)NCCc1ccc(Br)cc1 [TCMDC-134294]
[A] 2.102

[Q] Which % Inhibition is reported for this molecule? Cc1[nH]c(C)c(-c2ccc(OCc3ccccc3C(F)(F)F)nc2)c(=O)c1Br [TCMDC-135796]
[A] 65.1

---

System: P. falciparum stage V gametocytes
Parameters: BacTiter-Glo ATP luminescence viability of purified stage V gametocytes in 384-well plates, per cent inhibition versus DMSO
Conditions: 48 h, 5 µM; inhibitor
The campaign covered roughly 13,000 compounds. About 3,200 (25%) showed an effect of 50% or more. This is one part of the list.
The recorded % Inhibition of each item maps onto one of these classes: lower band = under -10%, central band = from -10% up to 20%, upper band = 20% and over

molecule=c1ccc(Oc2ccc(Nc3ccnc(Nc4ccc5cn[nH]c5c4)n3)cc2)cc1 cat="lower band"

[Q] Hey, which category is Cc1ccc(Nc2nc(C)cc(NC3CC3)n2)cc1 in, do you know?
[A] central band

[Q] Hey, which category is CC(C)NCc1cccc(-c2ccc(NC(=O)c3cccc(C#N)c3)cc2)c1 in, do you know?
[A] lower band

All values here come from paper PMC4552634.
